Assay: Inhibition of CSF1R/FLT3 in Melphalan Resistant human RPMI-8226 cells assessed as reduction of cell growth incubated for 72 hrs by CellTiter 96 aqueous one solution cell proliferation assay
Format: cell-based
Details: Melphalan-resistant RPMI-8226 cell
pIC50: −log10 of the molar value.
MEASURED ENDPOINT: pIC50

[[record]]
smiles_str = "CN(C)CC(=O)N1CCC(c2ccc(NC(=O)c3nc(C#N)c[nH]3)c(C3=CCCCC3)c2)CC1"
measured_endpoint = "pIC50"
meas_value = 5.00


* * *

Tested on: Bortezomib-resistant ANBL6
Experiment: cells
Conditions: Homo sapiens, Bortezomib-resistant ANBL6, 72 h
pIC50: −log10 of the molar value.
MEASURED ENDPOINT: pIC50

[[record]]
smiles_str = "CN1CCN(c2ccc3nc(-c4c(N)c5c(F)cccc5[nH]c4=O)[nH]c3c2)CC1"
measurement_target = "Bortezomib-resistant ANBL6"
meas_value = 5.18


* * *

Assay: Inhibition of PI3K/mTOR/ATM in Melphalan Resistant human RPMI-8226 cells assessed as reduction of cell growth incubated for 72 hrs by CellTiter 96 aqueous one solution cell proliferation assay
Type: cell-based
Conditions: Melphalan-resistant RPMI-8226 cell
MEASURED ENDPOINT: IC50 (µM)

[[record]]
smiles_str = "O=c1cc(-c2cccc3c2Sc2ccccc2S3)oc(N2CCOCC2)c1"
meas_value = 10


* * *

Experiment: Inhibition of B-RAFV600E/pERK in human ANBL-6 cells assessed as reduction of cell growth incubated for 72 hrs by CellTiter 96 aqueous one solution cell proliferation assay
Format: cell-based
Conditions: ANBL-6, 72 h
MEASURED ENDPOINT: IC50 (µM)

[[record]]
smiles_str = "OCCn1cc(-c2ccc3c(c2)CC/C3=N\\O)c(-c2ccncc2)n1"
meas_value = 10


* * *

Test: Inhibition of c-KIT/VEGFR1/B-Raf/RET/PDGFR in human bortezomib-resistant ANBL6 cells assessed as reduction of cell growth incubated for 72 hrs by CellTiter 96 aqueous one solution cell proliferation assay
Assay type: cell-based
pIC50: −log10 of the molar value.
MEASURED ENDPOINT: pIC50

[[record]]
smiles_str = "CNC(=O)c1cc(Oc2ccc(NC(=O)Nc3ccc(Cl)c(C(F)(F)F)c3)c(F)c2)ccn1"
measured_endpoint = "pIC50"
meas_value = 5.21


* * *

Assay: Inhibition of VEGFR1/PDGFR/cKIT/RET in human RPMI-8226 cells assessed as reduction of cell growth incubated for 72 hrs by CellTiter 96 aqueous one solution cell proliferation assay
Type: cell-based
Conditions: RPMI-8226, 72 h
MEASURED ENDPOINT: IC50 (µM)

[[record]]
smiles_str = "CC1(C)CNc2cc(NC(=O)c3cccnc3NCc3ccncc3)ccc21"
meas_value = 10


* * *

Tested on: RPMI-8226
Assay: Cytotoxicity against human RPMI-8226 cells assessed as reduction of cell growth incubated for 72 hrs by CellTiter 96 aqueous one solution cell proliferation assay
Format: functional, cell-based
Conditions: RPMI-8226, 72 h
pIC50: −log10 of the molar value.
MEASURED ENDPOINT: pIC50

[[record]]
smiles_str = "CN1CCN(c2ccc3nc(-c4c(N)c5c(F)cccc5[nH]c4=O)[nH]c3c2)CC1"
measured_endpoint = "pIC50"
meas_value = 5.67


* * *

Assay: cells
Conditions: Homo sapiens, RPMI-8226, 72 h
pIC50: −log10 of the molar value.
MEASURED ENDPOINT: pIC50

[[record]]
molecule = "CS(=O)(=O)c1ccc(C(=O)Nc2ccc(Cl)c(-c3ccccn3)c2)c(Cl)c1 [VISMODEGIB]"
meas_value = 5.00


* * *

Test: Inhibition of CAMKK in Melphalan Resistant human RPMI-8226 cells assessed as reduction of cell growth incubated for 72 hrs by CellTiter 96 aqueous one solution cell proliferation assay
Format: cell-based
Details: Melphalan-resistant RPMI-8226 cell
pIC50: −log10 of the molar value.
MEASURED ENDPOINT: pIC50

[[record]]
smiles_str = "O=C(O)c1ccc2c3c1cccc3c(=O)n1c3ccccc3nc21"
measured_endpoint = "pIC50"
meas_value = 5.00


* * *

Assay: Inhibition of CAMKII in human bortezomib-resistant ANBL6 cells assessed as reduction of cell growth incubated for 72 hrs by CellTiter 96 aqueous one solution cell proliferation assay
Type: cell-based
pIC50: −log10 of the molar value.
MEASURED ENDPOINT: pIC50

[[record]]
smiles_str = "COc1ccc(S(=O)(=O)Nc2ccccc2CN(C)C/C=C/c2ccc(Cl)cc2)cc1"
meas_value = 5.00

[[record]]
smiles_str = "COc1ccc(S(=O)(=O)N(CCO)c2ccccc2CN(C)C/C=C/c2ccc(Cl)cc2)cc1"
meas_value = 5.00

